- Tested on: GDAP1∆295-358 (Homo sapiens)
- Construct: C-terminally truncated (residues 295-358 deleted), alpha-loop insertion kept; N-terminal tag cut with TEV; E. coli BL21(DE3); monomer/dimer equilibrium
- Sequence (Q8TB36 1-294): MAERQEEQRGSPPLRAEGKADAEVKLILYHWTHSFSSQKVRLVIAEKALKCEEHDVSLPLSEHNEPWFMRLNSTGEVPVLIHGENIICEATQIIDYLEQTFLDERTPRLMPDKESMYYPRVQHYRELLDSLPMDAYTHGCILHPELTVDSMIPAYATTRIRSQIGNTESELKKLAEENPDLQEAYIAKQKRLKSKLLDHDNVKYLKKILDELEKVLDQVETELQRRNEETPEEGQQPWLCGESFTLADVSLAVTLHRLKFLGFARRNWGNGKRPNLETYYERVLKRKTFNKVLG
- Experimental protocol: isothermal titration calorimetry
pKd: −log10 of the molar value.
Measured quantity: pKd

[[record]]
smiles_text = "O=C(O)CCCCCCCCCCCCCCC(=O)O"
measured_quantity = "pKd"
test_value = 5.70


Values compiled from paper PMC7873046.
